experiment: cells; details: Homo sapiens, A2058, 1 h
Description: Inhibition of Class 1 PI3K/mTOR in human A2058 cells assessed as reduction in S6 phosphorylation at Ser235/236 residue incubated for 1 hr by InCell Western assay
assay endpoint: IC50 (nM)

Worked cases, answers included:
structure	unit label	IC50
C[C@@H]1COCCN1c1nc(-c2cnc(N)cc2C(F)(F)F)nc(N2CCOCC2)n1	nM	410
C[C@@H]1COC[C@H](C)N1c1nc(-c2cnc(N)cc2C(F)(F)F)nc(N2[C@H](C)COC[C@@H]2C)n1	nM	437
C[C@@H]1COC[C@@H](C)N1c1nc(-c2cnc(N)cc2C(F)(F)F)nc(N2[C@H](C)COC[C@H]2C)n1	nM	14500
C[C@H]1COCCN1c1nc(-c2cnc(N)cc2C(F)(F)F)nc(N2CCOC[C@@H]2C)n1	nM	283
C[C@H]1COC[C@H](C)N1c1nc(-c2cnc(N)cc2C(F)(F)F)nc(N2CCOCC2)n1	nM	126
C[C@@H]1COCCN1c1nc(-c2cnc(N)cc2C(F)(F)F)nc(N2CCOC[C@H]2C)n1	nM	1120
C[C@H]1COCCN1c1nc(-c2cnc(N)cc2C(F)F)nc(N2CCOCC2)n1	nM	61.9

A: Nc1cc(C(F)(F)F)c(-c2nc(N3C4CCC3COC4)nc(N3C4CCC3COC4)n2)cn1
B: C[C@@H]1COC[C@@H](C)N1c1nc(-c2cnc(N)cc2C(F)(F)F)nc(N2CCOCC2)n1
Incoming: // pick min by IC50: A , B When you have decided, please share the label of that item.
Outgoing: A
(A: 299 nM, B: 457 nM)
